- System: UACC-62 melanoma
- test-method-notes: NCI tumour cell line growth inhibition, 48 h
Listed compounds paired with reported TGI
property-name: TGI (µM)

[[record]]
compound = "CN1CCOC1(C)CO (stereo unspecified)"
comparative_sign = ">"
assay_result = 100

[[record]]
compound = "N#CC1Nc2ccccc2[C@@H](O)C1O (stereo partly specified)"
comparative_sign = ">"
assay_result = 100

[[record]]
compound = "COc1ccc(C2C(C#N)=C(N)OC3=C2COc2ccc(F)cc23)cc1OC (stereo unspecified)"
comparative_sign = "="
assay_result = 44.3

[[record]]
compound = "C/C(=N\\Nc1cc(CN2CCCC2)c(-c2ccc(Cl)cc2)nn1)C(=O)O"
comparative_sign = ">"
assay_result = 100

[[record]]
compound = "CN(C)Cc1c[nH]c2c1C(=O)c1c(c(O)c3ccccc3c1O)C2=O"
comparative_sign = "="
assay_result = 30.1

[[record]]
compound = "COc1ccc(CNc2c3ccccc3nc3ccccc23)cc1OC"
comparative_sign = "="
assay_result = 7.46

